Tested on: HepG2
method-notes: GSK_TCMDC: Percent inhibition of human HepG2 cell line. Test compounds present at 10uM.
Type: functional
# Inhibition per record follows
measured-attribute: Inhibition (%)

| compound | measured-attribute | experimental-value |
| --- | --- | --- |
| Cl.N=C(N)NN=Cc1c2ccccc2c(Cl)c2cc(Cl)ccc12 | Inhibition | 26 |
| Cc1cc(C2CCN(CCCCNC(=O)c3ccc(-c4ccc(C#N)cc4)cc3)CC2)c(C)cc1OCCO | Inhibition | 20 |
| Cc1cc(Nc2ccc3c(c2)CCC3)n2ncnc2n1 | Inhibition | 4 |
| CNC(=O)c1ccccc1Nc1cc(Nc2cc(OC)ccn2)ncc1Cl.O=CO | Inhibition | 69 |
| O=C(O)c1ccc2nc(-c3ccccn3)c(-c3ccccn3)nc2c1 | Inhibition | 3 |
| Cc1ccc2nc3c(cc(C(=O)NCCc4ccccc4)c(=N)n3CCCOC(C)C)c(=O)n2c1 | Inhibition | 15 |
| Cc1cccc(C(O)CNc2ccnc(Nc3cccc(-c4csc(C)n4)c3)n2)c1 (stereo not given) | Inhibition | 29 |
| O=C(Nc1cccc(-c2ccc(NCCCN3CCCC3)nc2)c1)c1ccccc1 | Inhibition | 22 |
| COCCN1CCC(N(CC2(O)CCN(c3ccc(C(F)(F)F)cc3)CC2)C(=O)Cn2c(SCc3cccc(F)c3F)cc(=O)c3ccccc32)CC1 | Inhibition | 29 |
| COc1cccc(-c2nn(C)c3sc(C(=O)NCCN(C)Cc4ccccc4)cc23)c1 | Inhibition | 21 |

* * *

# Inhibition per record follows
System: HepG2
method-notes: GSK_TCMDC: Percent inhibition of human HepG2 cell line. Test compounds present at 10uM.
Assay type: functional
measured-attribute: Inhibition

| compound | target | measured-attribute | experimental-value |
| --- | --- | --- | --- |
| NC(=O)c1ccccc1OCC(=O)Nc1cccc(-c2ccc(-c3nc4cc(C(F)(F)F)ccc4[nH]3)cc2)c1 | HepG2 | Inhibition | 58% |
| O=C(Nc1ccc(C(=O)Oc2cccc3ccccc23)cc1)N[C@@H](Cc1ccc(O)cc1)C(=O)NC1CCN(Cc2ccc(O)cc2)C1.O=C(O)C(F)(F)F (stereo partly drawn) | HepG2 | Inhibition | 0% |
| COc1ccc(-c2ccc(NC(=O)c3cccs3)cc2)cc1CN1CCCN(C)CC1.O=C(O)C(F)(F)F | HepG2 | Inhibition | 31% |
| CCCCNC(=O)[C@H](CC1CCCCC1)NC(=O)c1ccc(O)c(-c2ccc(Cl)c(Cl)c2)c1 | HepG2 | Inhibition | 0% |
| Cc1[nH]c2ccccc2c(=O)c1Br | HepG2 | Inhibition | 2% |
| O=C(Cn1c(CCc2cccc(F)c2F)nc(=O)c2cccnc21)N(Cc1ccc(-c2ccc(C(F)(F)F)cc2)cc1)C1CCN(C2CCSCC2)CC1.O=C(O)C(O)C(O)C(=O)O | HepG2 | Inhibition | 49% |
| COc1ccc2nccc(N3CCN(CCNCc4ccc5c(n4)NC(=O)CS5)CC3)c2n1.Cl | HepG2 | Inhibition | 10% |
| c1cncc(CN2CCCN(c3ccc4c(c3)CCN(Cc3ccc(-c5ncc[nH]5)cc3)CC4)CC2)c1 | HepG2 | Inhibition | 7% |

* * *

Tested on: Plasmodium falciparum
method-notes: GSK_TCMDC: Inhibition of Plasmodium falciparum 3D7 in whole red blood cells, using parasite LDH activity as an index of growth. Test compounds present at 2uM
Format: functional
# Inhibition per record follows

| molecule | Inhibition |
| --- | --- |
| OC(CNC1CCCCC1)Cn1c2ccccc2c2ccccc21 (stereo not given) | 97% |
| CN(C)c1ccc(/C=C2\S/C(=N\c3ccccc3)N(c3ccccc3)C2=O)cc1[N+](=O)[O-] | 96% |
| N#Cc1ccc(-c2ccc(C(=O)NCCCCN3CCC(c4ccc5c(c4OCC(N)=O)CCCC5)CC3)cc2)cc1 | 87% |
| CC(C)CC1c2[nH]c3ccccc3c(=O)c2CN1C(=O)OC(C)(C)C (stereo not given) | 97% |
| CN1CCN(c2ccnc3ccc(NC(=O)Nc4cccc5c(C#N)cccc45)cc23)CC1 | 91% |
| COc1ccc(O)c(C(=O)c2cnc3c(c2)c(-c2ccc(F)cc2)c(C#N)c(=O)n3C)c1 | 92% |
| Cc1cc(C=C(P(=O)(OC(C)C)OC(C)C)P(=O)(OC(C)C)OC(C)C)c2ccccc2c1O | 85% |
| CCCc1cc(N2CCC(c3ccccc3)(N3CCCCC3)CC2)nc(Nc2ccc(OC)cc2)n1 | 81% |
| N=C(N)NN=Cc1ccccc1OCc1ccccc1Cl | 100% |
| Nn1c(=O)oc2ccc(Cl)cc2c1=O | 97% |
